# Tested on: SN12C renal
# Assay text: NCI-60 one-dose screen, 48 h (100 = growth as untreated, 0 = no growth, -100 = all killed)
# Condition details: 10 µM unless noted
About 83,000 compounds went through this panel and 20% of them were active in at least one assay; those are over-represented in the sample as a whole.
Measured attribute: growth (%)
Dear colleague, please return just the value in %, with no unit written.

Endpoint output: growth of `COc1ccc2c(c1)c(-c1cc(N)n3nc(-c4cn(C)c5ccccc45)cc3n1)cn2C` . Value?
-59.6

Endpoint output: growth of `NS(=O)(=O)c1ccc(-n2cc(-c3cccc(NC(=O)c4cc(N5CCOCC5)cc(C(F)(F)F)c4)c3)nn2)cc1` . Value?
35.1

Endpoint output: growth of CCOC(=O)C1=C(N)N(c2ccccc2)C2=C(C(=O)CC(C)(C)C2)C1c1ccc(N2CCOCC2)cc1 (stereo not given) . Value?
95.7

Endpoint output: growth of `Cn1cc(-c2nc(N)nnc2-c2c[nH]c3ccc(F)cc23)c2cc(Br)cnc21` . Value?
10.4

Endpoint output: growth of `Cc1c(C(=O)NNC(=O)c2ccc(Cl)cc2)nnn1-c1ccc(Br)cc1` . Value?
102

---

# System: RPMI-8226 leukemia
# Assay text: NCI-60 one-dose screen, 48 h (100 = growth as untreated, 0 = no growth, -100 = all killed)
# Condition details: 10 µM unless noted
About 83,000 compounds went through this panel and 20% of them were active in at least one assay; those are over-represented in the sample as a whole.
For each entry below, report its growth value.
Dear colleague, please return just the value in %, with no unit written.

Endpoint output: growth of `Cn1cc(-c2cc3nc(-c4c[nH]c5ccc(Cl)cc45)cc(N)n3n2)c2ccccc21` . Value?
-38.7

Endpoint output: growth of `COc1ccc(-c2nc3ccc(C(=O)NN4C(=O)c5ccc([N+](=O)[O-])cc5C4=O)cc3[nH]2)cc1` . Value?
80.9

Endpoint output: growth of CCOC(=O)C1=C(N)N(c2ccccc2)C2=C(C(=O)CC(C)(C)C2)C1c1ccc(Cl)cc1Cl (centres undefined) . Value?
7.77

Endpoint output: growth of COc1ccc(NC(=O)[C@@H](N)Cc2ccccc2)cc1C(=O)Nc1cccc(C2CC(=O)c3c(cc(OC)c(OC)c3OC)O2)c1 (some centres undefined) . Value?
20.2

---

# Tested on: MDA-MB-231 breast
# Assay text: NCI-60 one-dose screen, 48 h (100 = growth as untreated, 0 = no growth, -100 = all killed)
# Condition details: 10 µM unless noted
Compounds without any hit were thinned out: in the full panel of roughly 83,000, 20% have a hit.
For each entry below, report its growth value.
Dear colleague, please return just the value in %, with no unit written.

Endpoint output: growth of `Cc1cc2nc3c4ccccc4n(CC4=NCCN4)c3nc2cc1C` . Value?
-43.2

Endpoint output: growth of `Cn1cc(-c2cc(N)n3nc(-c4cn(C)c5ccccc45)cc3n2)c2cc(Cl)ccc21` . Value?
-45.4

Endpoint output: growth of `CC(=O)N1CCN(Cc2ccc3c(NNC(=O)c4cnccn4)nc4cc(F)ccc4n23)CC1` . Value?
36.5

Endpoint output: growth of `COc1ccc(-c2nc3cc(C)ccc3n2CC(=O)N=Nc2c(O)[nH]c3ccc(OC)cc23)cc1` . Value?
-76.3

Endpoint output: growth of `CCN(CC)CCOc1ccc(Nc2ncc3cc(-c4ccc(O)c(C#N)c4)c(=O)n(C)c3n2)cc1` . Value?
11.9

Endpoint output: growth of `COc1cc2oc(-c3cccc(NC(=O)[C@H](CC(N)=O)NC(=O)OC(C)(C)C)c3)cc(=O)c2c(OC)c1OC` . Value?
97.7

Endpoint output: growth of `COc1ccc(-c2c(Nn3cnnn3)no[n+]2[O-])cc1` . Value?
38.8

Endpoint output: growth of `CN1CCN(Cc2ccc(C(=O)Nc3cccc(C#Cc4cccc5[nH]nc(N)c45)c3)cc2C(F)(F)F)CC1` . Value?
-90.8

Endpoint output: growth of C=C1CCC2C3(C)COC(c4cccc(F)c4)OC3CCC2(C)C1C/C=C1/C(=O)OCC1O (stereo unspecified) . Value?
-32.8

Endpoint output: growth of O=C(c1ccc(OCCN2CCOCC2)cc1)C1[C@H](c2ccc(Cl)cc2)[C@@H](c2ccccc2)NC12C(=O)Nc1ccc(Cl)cc12 (stereo partly specified) . Value?
28.7

Endpoint output: growth of `CN(C)CCCNC(=O)c1cc(NC(=O)c2cc(NC(=O)c3ccc(/C=C/c4ccccc4)cc3)cn2C)cn1C` . Value?
65.6

Endpoint output: growth of `COc1ccc(/C=C/c2nc3ccccc3c(=O)n2CC(=O)Nc2ccc(Cl)cc2)cc1` . Value?
48.8

Endpoint output: growth of `O=C(NNc1nc2cc(F)ccc2n2c(CN3CCCCC3)ccc12)c1cnccn1` . Value?
-31.1

Endpoint output: growth of `O=C1/C(=C/C2=Cc3ccccc3OC2)SC(=S)N1c1ccccc1F` . Value?
97.2

Endpoint output: growth of Cc1ccc([C@H]2C(C(=O)c3ccc(Cl)cc3)C3(N[C@@H]2c2ccccc2)C(=O)Nc2ccc(Br)cc23)cc1 (stereo partly specified) . Value?
49.7

Endpoint output: growth of COc1cc2c(c(OC)c1OC)C(=O)CC(c1cccc(NC(=O)c3cc(NC(=O)[C@H](C)N)ccc3Cl)c1)O2 (stereo partly specified) . Value?
52.5

Endpoint output: growth of COC(=O)/C=C/c1cccc2c1C(=O)NC(C)(c1cc3cc4ccccc4cc3oc1=O)N2 (stereo unspecified) . Value?
28.5

Endpoint output: growth of `CC(C)CSc1nc(NCCc2c[nH]c3ccccc23)c(C#N)c(-c2ccccc2)n1` . Value?
38.3

Endpoint output: growth of `O=S(=O)(Nc1cccc(-n2cnc3cc(-c4ccc(O)cc4)ccc32)c1)C1CC1` . Value?
42.4

Endpoint output: growth of `O=C(c1ccccc1)C(c1c[nH]c2ccccc12)c1c[nH]c2ccccc12` . Value?
57.5

Endpoint output: growth of `O=c1[nH]c2ccc(Cl)cc2cc1CSc1nccc(-c2ccc(Cl)cc2)n1` . Value?
45.7

Endpoint output: growth of `CCCSc1nc(Nc2ccc(S(N)(=O)=O)cc2)c(C#N)c(-c2ccc(Cl)cc2)n1` . Value?
-55.6

Endpoint output: growth of `CCCCSc1nc(Nc2ccc(C(C)=O)cc2)c(C#N)c(-c2ccc(OC)cc2)n1` . Value?
60.6

Endpoint output: growth of COc1cc2c(c(OC)c1OC)C(=O)CC(c1cccc(NC(=O)c3cc(NC(=O)[C@H](CO)NC(=O)OC(C)(C)C)ccc3Cl)c1)O2 (stereo partly specified) . Value?
6.43

Endpoint output: growth of `COc1ccc(NC(=O)Nc2ccc(OCc3ccc(F)cc3)cc2)cc1` . Value?
53.5

Endpoint output: growth of `CN1CCN(/C(=N\c2sc(-c3ccccc3)nc2-c2ccccc2)c2ccccc2)CC1` . Value?
77.9

Endpoint output: growth of C=C1CCC2C3(C)COC(c4ccccc4F)OC3CCC2(C)C1CC(O)C1=CCOC1=O (stereo unspecified) . Value?
77.7

Endpoint output: growth of CC12CC[C@@H]3[C@]4(C)COC(c5c(F)cccc5F)O[C@@H]4CC[C@@]3(C)[C@@H]1CC(C1=CCOC1=O)O2 (stereo partly specified) . Value?
36.5

Endpoint output: growth of `O=C(NNc1nc2cc(F)ccc2n2c(C(=O)N3CCN(C4CC4)CC3)ccc12)c1ncccn1` . Value?
43.6

Endpoint output: growth of `Cc1cc2c(cc1Cl)C(=O)/C(=C/c1ccc(F)cc1)O2` . Value?
90.1

Endpoint output: growth of CCCS(=O)(=O)N1CCCC(C(=O)Nc2nc3ccc(NC(=O)c4ccc(F)c(OC)c4F)cc3s2)C1 (stereo unspecified) . Value?
62.9

Endpoint output: growth of `CN(C)c1ccnc(CNCCSC2(c3ccccc3)c3ccccc3C=Cc3ccccc32)c1` . Value?
-49.5

Endpoint output: growth of `O=C(/C=C/Nc1ccc2oc(=O)ccc2c1)c1cc2cc(Br)ccc2oc1=O` . Value?
94.1

Endpoint output: growth of `Cn1cc(-c2cc(N)n3nc(-c4cn(C)c5ccccc45)cc3n2)c2cc(Br)ccc21` . Value?
-41.2

Endpoint output: growth of `C/C(=N\N=C1/C(=O)Nc2ccc(Cl)cc21)c1ccc2c(c1)Nc1ccccc1S2` . Value?
-2.47

Endpoint output: growth of C=C1CC[C@@H]2[C@]3(C)COC(c4cn[nH]c4-c4ccc(F)cc4)O[C@@H]3CC[C@@]2(C)[C@@H]1C/C=C1/C(=O)OCC1O (stereo partly specified) . Value?
-40.5

---

# Tested on: ACHN renal
# Assay text: NCI-60 one-dose screen, 48 h (100 = growth as untreated, 0 = no growth, -100 = all killed)
# Condition details: 10 µM unless noted
This is part of a sample that, as a whole, favours compounds with a hit. Of some 83,000 tested, about 20% had one in any assay.
Under this convention, fulfilled denotes growth strictly below 50% and not fulfilled denotes growth at or above 50%.

Here's an entry: COc1ccc(N2N=C(c3ccc4c(c3)OCO4)CC2c2cccc(NC(=O)CCCNS(=O)(=O)c3ccc(F)cc3)c2)cc1 (stereo not given) . Is its growth below 50%?
not fulfilled

Here's an entry: `Cc1cc2c(cc1Cl)C(=O)/C(=C/c1ccccc1)O2` . Is its growth below 50%?
fulfilled

Here's an entry: `Cc1cnc(C(=O)NNc2nc3cc(F)ccc3n3c(C(=O)N4CC5CC(C4)N5)ccc23)cn1` . Is its growth below 50%?
fulfilled

Here's an entry: `COc1cc(/C=C2\C(=N)N=C(SCc3nc4ccccc4[nH]3)NC2=O)ccc1O` . Is its growth below 50%?
not fulfilled

Just for reference, PubChem BioAssay (NCI) is where these values come from.
